# Tested on: Danio rerio larvae (5 dpf)
# procedure.summary: difference in startle response vs DMSO (percentage points); higher = stronger startle than DMSO
# condition.details: 10 µM; exposure time 6 h
Structures can show the parent of a compound that is named as a salt.
readout.type: difference in startle response
# answer = number (no unit)

Given item CC[C@@H]1C(=O)OC[C@@H]1Cc1cncn1C [(+)-Pilocarpine (hydrochloride)] , the value recorded as its difference in startle response is -3.79

The reported difference in startle response of the compound "CC=CC1=C(C(=O)O)N2C(=O)[C@@H](NC(=O)[C@H](N)c3ccc(O)cc3)[C@H]2SC1" was -8.07

Note to self: difference in startle response recorded for O=C1NC(c2ccccc2)(c2ccccc2)C(=O)N1COP(=O)(O)O [Fosphenytoin (sodium salt)] was 6.03

Notebook: "CC1=C(C/C=C(\C)CCC[C@H](C)CCC[C@H](C)CCCC(C)C)C(=O)c2ccccc2C1=O" , difference in startle response read as 1.27

Quick note, difference in startle response for "CCO/N=C(\C(=O)N[C@@H]1C(=O)N2C(C(=O)[O-])=C(Sc3nc(-c4cc[n+](C)cc4)cs3)CS[C@H]12)c1nsc(NP(=O)(O)O)n1" landed at 0.685

* * *

# System: Danio rerio larvae (5 dpf)
# procedure.summary: difference in habituation to acoustic stimuli vs DMSO (percentage points); higher = more habituation than DMSO
# condition.details: 10 µM; exposure time 6 h
Where a name gives a salt, the structure may show the parent alone.
Measured difference in habituation to acoustic stimuli accompanies every entry in the list below.
Please reply with the number alone, leaving off any unit.

// below: answered compounds
CN[C@H](CC(C)C)C(=O)N[C@H]1C(=O)N[C@@H](CC(N)=O)C(=O)N[C@H]2C(=O)N[C@H]3C(=O)N[C@H](C(=O)N[C@H](C(=O)O)c4cc(O)cc(O)c4-c4cc3ccc4O)[C@H](O)c3ccc(c(Cl)c3)Oc3cc2cc(c3O[C@@H]2O[C@H](CO)[C@@H](O)[C@H](O)[C@H]2O[C@H]2C[C@](C)(N)[C@H](O)[C@H](C)O2)Oc2ccc(cc2Cl)[C@H]1O [Vancomycin (hydrochloride)]
-1.36
COc1c(C)c2c(c(O)c1C/C=C(\C)CCC(=O)O)C(=O)OC2
-0.729

Here is another compound to look at.
difference in habituation to acoustic stimuli for CCOC(=O)C1=C[C@@H](OC(CC)CC)[C@H](NC(C)=O)[C@@H](N)C1 [Oseltamivir (phosphate)] is -5.42

* * *

Entries and their difference
# Tested on: Danio rerio larvae (5 dpf)
# procedure.summary: difference in combined optomotor response to red, green and blue moving lines vs DMSO (percentage points); higher = stronger optomotor response than DMSO
# condition.details: 10 µM; exposure time 6 h
Counter-ions that a name gives are not always drawn.

CCCNC(C)C(=O)Nc1c(C)csc1C(=O)OC (stereo unspecified) [Articaine (hydrochloride)]
-0.0299

Reported difference for "CC1=NN(c2ccccc2)C(=O)C1" was 4.56

compound Cc1c(O)cccc1C(=O)N[C@@H](CSc1ccccc1)[C@H](O)CN1C[C@H]2CCCC[C@H]2C[C@H]1C(=O)NC(C)(C)C [Nelfinavir (mesylate)] , difference observed: -10.2

Sample Nc1nc2ccc(OC(F)(F)F)cc2s1 [Riluzole (hydrochloride)] ; difference observed: 11.9

// recorded difference for NC(=O)N1c2ccccc2CC(=O)c2ccccc21 [Oxcarbazepine] : 8.73

Reported difference for CC(C)NCC(O)COc1ccc(CC(N)=O)cc1 (racemic) [(±)-Atenolol] was 1.82

// field: difference; key: CC(C)(C(=O)O)c1ccc(C(O)CCCN2CCC(C(O)(c3ccccc3)c3ccccc3)CC2)cc1 (stereo unspecified) [Fexofenadine (hydrochloride)] ; value = 5.51

Record "CO[C@@H]1[C@H](N(C)C(=O)c2ccccc2)C[C@H]2O[C@]1(C)n1c3ccccc3c3c4c(c5c6ccccc6n2c5c31)C(=O)NC4" , field difference: 0.314
